# testedTarget: human RXFP1, full-length (human), Q9HBX9
# Sequence (Q9HBX9 whole entry): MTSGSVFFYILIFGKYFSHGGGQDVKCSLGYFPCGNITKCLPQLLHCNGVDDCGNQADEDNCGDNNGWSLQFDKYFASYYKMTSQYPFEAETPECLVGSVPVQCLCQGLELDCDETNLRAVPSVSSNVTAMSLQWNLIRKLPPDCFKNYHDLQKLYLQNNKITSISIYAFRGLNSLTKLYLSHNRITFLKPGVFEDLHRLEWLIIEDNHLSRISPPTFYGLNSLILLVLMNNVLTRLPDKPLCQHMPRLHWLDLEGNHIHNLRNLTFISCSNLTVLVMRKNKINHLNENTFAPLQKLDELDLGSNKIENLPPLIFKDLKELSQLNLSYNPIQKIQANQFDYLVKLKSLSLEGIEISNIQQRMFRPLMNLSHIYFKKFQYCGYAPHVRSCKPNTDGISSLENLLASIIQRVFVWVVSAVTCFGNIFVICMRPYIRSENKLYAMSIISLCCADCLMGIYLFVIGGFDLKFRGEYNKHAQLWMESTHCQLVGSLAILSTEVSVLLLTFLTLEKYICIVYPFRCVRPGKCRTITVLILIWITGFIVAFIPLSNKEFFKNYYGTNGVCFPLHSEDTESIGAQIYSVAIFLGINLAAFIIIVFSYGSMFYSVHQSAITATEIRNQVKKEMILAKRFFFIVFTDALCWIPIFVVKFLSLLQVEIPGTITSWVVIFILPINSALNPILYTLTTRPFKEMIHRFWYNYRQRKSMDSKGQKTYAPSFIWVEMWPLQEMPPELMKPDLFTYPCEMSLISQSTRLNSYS
# measurementDescription: cell-based or functional assay
Could you mark each record rule met if its Potency Assay EC50 (nM), transient hRXFP1 cAMP assay falls strictly under 50 nM, and rule not met if it equals or exceeds it?

binder: SEQ ID NO: 208 (Fc fusion) DKTHTCPPCPAPEAAGGPSVFLFPPKPKDTLMISRTPEVTCVVVDVSHEDPEVKFNWYVDGVEVHNAKTKPREEQYNSTYRVVSVLTVLHQDWLNGKEYKCKVSNKALAAPIEKTISKAKGQPREPQVYTLPPSRDELTKNQVSLTCLVKGFYPSDIAVEWESNGQPENNYKTTPPVLDSDGSFFLYSKLTVDKSRWQQGNVFSCSVLHEALHSHYTQKSLSLSPGKGGSDSWMEEVIKLCGRELVRAQIAICGKSTGGEGGGEEGGGEGGQLYSALANKCCHVGCTKRSLARFC
groupLabel: rule not met
--
binder: SEQ ID NO: 204 (Fc fusion) DKTHTCPPCPAPEAAGGPSVFLFPPKPKDTLMISRTPEVTCVVVDVSHEDPEVKFNWYVDGVEVHNAKTKPREEQYNSTYRVVSVLTVLHQDWLNGKEYKCKVSNKALAAPIEKTISKAKGQPREPQVYTLPPSRDELTKNQVSLTCLVKGFYPSDIAVEWESNGQPENNYKTTPPVLDSDGSFFLYSKLTVDKSRWQQGNVFSCSVLHEALHSHYTQKSLSLSPGKGGSDSWKEEVIKLCGRELVRAQIAICGKSTGGGEGGGEGGGEGRQLYSALANKCCHVGCTKRSLARFC
groupLabel: rule met
--
binder: SEQ ID NO: 78 (Fc fusion) DKTHTCPPCPAPEAAGGPSVFLFPPKPKDTLMISRTPEVTCVVVDVSHEDPEVKFNWYVDGVEVHNAKTKPREEQYNSTYRVVSVLTVLHQDWLNGKEYKCKVSNKALAAPIEKTISKAKGQPREPQVYTLPPSRDELTKNQVSLTCLVKGFYPSDIAVEWESNGQPENNYKTTPPVLDSDGSFFLYSKLTVDKSRWQQGNVFSCSVLHEALHSHYTQKSLSLSPGGGSDSWQEEVIKLCGRELVRAQIAICGKSTGGGEEGGGEEGGGRQLYSALANKCCHVGCTKRSLAQFC
groupLabel: rule met
--
binder: SEQ ID NO: 84 (Fc fusion) DKTHTCPPCPAPEAAGGPSVFLFPPKPKDTLMISRTPEVTCVVVDVSHEDPEVKFNWYVDGVEVHNAKTKPREEQYNSTYRVVSVLTVLHQDWLNGKEYKCKVSNKALAAPIEKTISKAKGQPREPQVYTLPPSRDELTKNQVSLTCLVKGFYPSDIAVEWESNGQPENNYKTTPPVLDSDGSFFLYSKLTVDKSRWQQGNVFSCSVLHEALHSHYTQKSLSLSPGGGSDSWQEEVIKLCGRELVRAQIAICGKSTGGEGEGGEGEGGSRQLYSALANKCCHVGCTKRSLAQFC
groupLabel: rule met
--
binder: SEQ ID NO: 205 (Fc fusion) DKTHTCPPCPAPEAAGGPSVFLFPPKPKDTLMISRTPEVTCVVVDVSHEDPEVKFNWYVDGVEVHNAKTKPREEQYNSTYRVVSVLTVLHQDWLNGKEYKCKVSNKALAAPIEKTISKAKGQPREPQVYTLPPSRDELTKNQVSLTCLVKGFYPSDIAVEWESNGQPENNYKTTPPVLDSDGSFFLYSKLTVDKSRWQQGNVFSCSVLHEALHSHYTQKSLSLSPGKGGSDSWKEEVIKLCGRELVRAQIAICGKSTGGGEGGGEGGGEGGGQLYSALANKCCHVGCTKRSLARFC
groupLabel: rule met
--
binder: SEQ ID NO: 85 (Fc fusion) DKTHTCPPCPAPEAAGGPSVFLFPPKPKDTLMISRTPEVTCVVVDVSHEDPEVKFNWYVDGVEVHNAKTKPREEQYNSTYRVVSVLTVLHQDWLNGKEYKCKVSNKALAAPIEKTISKAKGQPREPQVYTLPPSRDELTKNQVSLTCLVKGFYPSDIAVEWESNGQPENNYKTTPPVLDSDGSFFLYSKLTVDKSRWQQGNVFSCSVLHEALHSHYTQKSLSLSPGKGGSDSWQEEVIKLCGRELVRAQIAICGKSTGGEGEGGEGEGGSRQDYSALANKCCHVGCTKRSLAQFC
groupLabel: rule not met
--
binder: SEQ ID NO: 211 (Fc fusion) DKTHTCPPCPAPEAAGGPSVFLFPPKPKDTLMISRTPEVTCVVVDVSHEDPEVKFNWYVDGVEVHNAKTKPREEQYNSTYRVVSVLTVLHQDWLNGKEYKCKVSNKALAAPIEKTISKAKGQPREPQVYTLPPSRDELTKNQVSLTCLVKGFYPSDIAVEWESNGQPENNYKTTPPVLDSDGSFFLYSKLTVDKSRWQQGNVFSCSVLHEALHSHYTQKSLSLSPGGGSDSWQEEVIKLCGRELVRAQIAICGKSTGGEGGGEEGGGEGGQLYSALANKCCHVGCTKRSLARFC
groupLabel: rule not met

Turning now to a further record.
INPUT: Criterion: Potency Assay EC50 (nM), transient hRXFP1 cAMP assay strictly below 50 nM. Is it met by SEQ ID NO: 209 (Fc fusion) DKTHTCPPCPAPEAAGGPSVFLFPPKPKDTLMISRTPEVTCVVVDVSHEDPEVKFNWYVDGVEVHNAKTKPREEQYNSTYRVVSVLTVLHQDWLNGKEYKCKVSNKALAAPIEKTISKAKGQPREPQVYTLPPSRDELTKNQVSLTCLVKGFYPSDIAVEWESNGQPENNYKTTPPVLDSDGSFFLYSKLTVDKSRWQQGNVFSCSVLHEALHSHYTQKSLSLSPGKGGSDSWQEEVIKLCGRELVRAQIAICGKSTGGEGGGEEGGGEGGQLYSALANKCCHVGCTKRSLARFC ?
OUTPUT: rule not met
